Entries and their cell shape (Z-score)
System: human monocyte-derived macrophages (M0)
EXPERIMENT DESCRIPTION: cell shape (eccentricity) Z-score vs DMSO control; higher = more elongated, M2-like morphology
CONDITION NOTES: 20 µM; 24 h; macrophage state: M0 (M-CSF)
Whole data set: some 3,800 compounds, median “cell shape (eccentricity) Z-score vs DMSO control” near 1.1, cut for the lowest 2% near -4.7. For the sample, the lowest values were picked, then their nearest neighbours and some compounds at random.
Write the number on its own, no unit after it.

[[record]]
compound = "COc1cc(C)c(C(=O)O[C@H]2[C@@H](OC(C)=O)[C@H](n3ccc(=O)[nH]c3=O)O[C@@H]2CO)c(OC)c1"
tested_target = "human monocyte-derived macrophages (M0)"
endpoint_value = 1.91

[[record]]
compound = "COc1c2c(cc3occ(-c4ccc5c(c4)OCO5)c(=O)c13)OC(C)(C)C=C2"
tested_target = "human monocyte-derived macrophages (M0)"
endpoint_value = 1.71

[[record]]
compound = "O=C(Nc1ccc([N+](=O)[O-])cc1Cl)c1cc(Cl)ccc1O"
tested_target = "human monocyte-derived macrophages (M0)"
endpoint_value = -4.1

[[record]]
compound = "CC(C)CC1NC(=O)C2CCCN2C1=O (stereo not given)"
tested_target = "human monocyte-derived macrophages (M0)"
endpoint_value = 2.84

[[record]]
compound = "COc1ccc(NC(=O)c2ccc(-c3ccc(-c4noc(C)n4)cc3C)cc2)cc1N1CCN(C)CC1"
tested_target = "human monocyte-derived macrophages (M0)"
endpoint_value = -0.626

[[record]]
compound = "COc1cc(O)c(C(=O)c2c(O)cc(C)cc2O)c(C(=O)O)c1"
tested_target = "human monocyte-derived macrophages (M0)"
endpoint_value = 1.14

[[record]]
compound = "O=C(Nc1ccc([N+](=O)[O-])cc1O)Nc1ccccc1Br"
tested_target = "human monocyte-derived macrophages (M0)"
endpoint_value = -4.95

[[record]]
compound = "Nc1ccc(S(=O)(=O)NC(=O)c2ccccc2)cc1"
tested_target = "human monocyte-derived macrophages (M0)"
endpoint_value = 0.441


Find the recorded cell shape (Z-score) belonging to COc1c(-c2coc3cc4c(cc3c2=O)CC(O)C(C)(C)O4)ccc2c1C=CC(C)(C)O2 (stereo not given) and report it.
-0.764

Find the recorded cell shape (Z-score) belonging to C=C[C@@](C)(O)CCC1C(=C)CCC2[C@@](C)(CO)CCC[C@]12C (stereo not given in full) and report it.
4.09
